Each item that follows carries a reported IC50.
tested on: human lung cancer cell line (A459); assay: MTT assay, growth inhibition of A549 cells; format: cell-based; conditions: Homo sapiens, 48 h, read-out: A549 (IC50, μM)

Entry under test: CCOC(=O)NC(=O)CC1C(=O)N(Nc2ccccc2CC)c2c(CC)cccc21 (centres unmarked) . Its IC50 was > 50 µM

Entry under test: CCc1ccccc1NN1C(=O)C(CC(=O)N[C@@H](C)C(=O)OC)c2cccc(CC)c21 (some centres unmarked) . Its IC50 was > 50 µM

---

test system: human breast cancer cell line (MCF-7); test: MTT assay, growth inhibition of MCF-7 cells; format: cell-based; conditions: MCF7, MTT, 48 hours incubation, MCF-7, read-out: MCF-7 (IC50)
pIC50: −log10 of the molar value.
measure: pIC50

Entry under test: CNC(=O)CC1C(=O)N(Nc2cc(Br)ccc2C)c2c(C)ccc(Br)c21 (stereo not shown) . Its pIC50 was < 4.30

Entry under test: CCc1ccccc1NN1C(=O)C(CC(=O)OC)c2cccc(CC)c21 (stereo not shown) . Its pIC50 was < 4.30

Entry under test: CCc1ccccc1NN1C(=O)C(CC(=O)NC(C)(C)C)c2cccc(CC)c21 (stereo not shown) . Its pIC50 was < 4.30

Entry under test: CCc1cccc(NN2C(=O)C(CC(=O)NC)c3ccc(CC)cc32)c1 (stereo not shown) . Its pIC50 was < 4.30

---

Each item that follows carries a reported IC50.
test system: human ovarian cancer cell line (SKOV3); assay: MTT assay, growth inhibition of SKOV3 cells; format: cell-based; details: SK-OV-3, 48 h, read-out: SKOV3 (IC50, μM)

Entry under test: CCc1ccccc1NN1C(=O)C(CC(=O)N[C@@H](C)C(=O)OC)c2cccc(CC)c21 (some centres unmarked) [4j] . Its IC50 was > 50 µM

Entry under test: CCOC(=O)NC(=O)CC1C(=O)N(Nc2ccccc2CC)c2c(CC)cccc21 (centres unmarked) [4h] . Its IC50 was > 50 µM

---

tested on: human breast cancer cell line (MCF-7); assay: MTT assay, growth inhibition of MCF-7 cells; assay type: cell-based; conditions: MCF7, MTT, 48 hours incubation, MCF-7, read-out: MCF-7 (IC50)
Sorting guide: entries reporting IC50 beneath 20 µM go in the YES pile, the rest go in the NO pile.

Observe how each entry below is paired with its result.
| compound | label-class |
| --- | --- |
| CCNC(=O)CC1C(=O)N(Nc2ccccc2CC)c2c(CC)cccc21 (stereo not drawn) [4b] | NO |
| CCc1ccccc1NN1C(=O)C(CC(=O)NCc2ccccc2)c2cccc(CC)c21 (stereo not drawn) [4c] | YES |
| CNC(=O)CC1C(=O)N(Nc2ccc(F)cc2C)c2c(C)cc(F)cc21 (stereo not drawn) [3h] | NO |

input: Is 20 µM strictly greater than the compound's reported IC50? compound: CNC(=O)CC1C(=O)N(Nc2cccc(Br)c2C)c2c1ccc(Br)c2C (stereo not drawn) [3f]
output: YES

input: Is 20 µM strictly greater than the compound's reported IC50? compound: CCc1ccccc1NN1C(=O)C(CC(=O)NC2CCCCC2)c2cccc(CC)c21 (stereo not drawn) [4d]
output: NO

input: Is 20 µM strictly greater than the compound's reported IC50? compound: CNC(=O)CC1C(=O)N(Nc2cccc(C)c2C)c2c1ccc(C)c2C (stereo not drawn) [3c]
output: NO

---

tested on: human breast cancer cell line (MCF-7); assay: MTT assay, growth inhibition of MCF-7 cells; format: cell-based; conditions: MCF7, MTT, 48 hours incubation, MCF-7, read-out: MCF-7 (IC50)
measure: pIC50
Here pIC50 is given on a logarithmic scale as minus log10 of the concentration in mol/L.

Example results:
| compound | tested-target | pIC50 |
| --- | --- | --- |
| CCCCOC(=O)c1[nH]c2cc(CC)ccc2c1C(=O)OCCCC | human breast cancer cell line (MCF-7) | 4.69 |
| CCc1ccccc1NN1C(=O)C(CC(=O)OCC(C)C)c2cccc(CC)c21 (stereo not drawn) | human breast cancer cell line (MCF-7) | 4.85 |

Entry under test: CCCCOC(=O)CC1C(=O)N(Nc2ccccc2CC)c2c(CC)cccc21 (stereo not drawn) . Its pIC50 was 4.83

Entry under test: CCc1ccccc1NN1C(=O)C(CC(=O)OC(C)C)c2cccc(CC)c21 (stereo not drawn) . Its pIC50 was 4.34

Entry under test: CNC(=O)CC1C(=O)N(Nc2cccc(Cl)c2C)c2c1ccc(Cl)c2C (stereo not drawn) . Its pIC50 was 4.69

Entry under test: CCc1ccccc1NN1C(=O)C(CC(=O)Nc2ccccc2)c2cccc(CC)c21 (stereo not drawn) . Its pIC50 was 5.02

---

Each item that follows carries a reported pIC50.
test system: human breast cancer cell line (MCF-7); experiment: MTT assay, growth inhibition of MCF-7 cells; assay type: cell-based; conditions: MCF7, MTT, 48 hours incubation, MCF-7, read-out: MCF-7 (IC50)
pIC50: −log10 of the molar value.

Entry under test: CCc1ccccc1NN1C(=O)C(CC(=O)NC(=O)OC)c2cccc(CC)c21 (stereo not drawn) . Its pIC50 was < 4.30

Entry under test: CNC(=O)CC1C(=O)N(Nc2ccc(C)cc2)c2ccc(C)cc21 (stereo not drawn) . Its pIC50 was < 4.30

Entry under test: CCc1cccc2c1NC(=O)C2CC(=O)OC(C)C (stereo not drawn) . Its pIC50 was < 4.30

Entry under test: CNC(=O)CC1C(=O)N(Nc2ccc(C)cc2C)c2c(C)cc(C)cc21 (stereo not drawn) . Its pIC50 was < 4.30

Entry under test: CNC(=O)CC1C(=O)N(Nc2cccc(F)c2C)c2c1ccc(F)c2C (stereo not drawn) . Its pIC50 was < 4.30

Entry under test: CNC(=O)CC1C(=O)N(Nc2ccccc2)c2ccccc21 (stereo not drawn) . Its pIC50 was < 4.30

---

tested on: human breast cancer cell line (MCF-7); assay: MTT assay, growth inhibition of MCF-7 cells; type: cell-based; conditions: MCF7, MTT, 48 hours incubation, MCF-7, read-out: MCF-7 (IC50)
measure: IC50

Example results:
| compound | reading |
| --- | --- |
| CNC(=O)CC1C(=O)N(Nc2ccc(Cl)cc2C)c2c(C)cc(Cl)cc21 (stereo not drawn) | > 50 µM |
| CNC(=O)CC1C(=O)N(Nc2ccccc2C)c2c(C)cccc21 (stereo not drawn) | > 50 µM |

Entry under test: CCc1ccccc1NN1C(=O)C(CC(N)=O)c2cccc(CC)c21 (stereo not drawn) . Its IC50 was > 50 µM
